# Measured On: human Alpha-1a Adrenergic receptor (Homo sapiens, UniProt P35348)
# Construct: expressed in transfected cells
# Sequence (P35348 1-466): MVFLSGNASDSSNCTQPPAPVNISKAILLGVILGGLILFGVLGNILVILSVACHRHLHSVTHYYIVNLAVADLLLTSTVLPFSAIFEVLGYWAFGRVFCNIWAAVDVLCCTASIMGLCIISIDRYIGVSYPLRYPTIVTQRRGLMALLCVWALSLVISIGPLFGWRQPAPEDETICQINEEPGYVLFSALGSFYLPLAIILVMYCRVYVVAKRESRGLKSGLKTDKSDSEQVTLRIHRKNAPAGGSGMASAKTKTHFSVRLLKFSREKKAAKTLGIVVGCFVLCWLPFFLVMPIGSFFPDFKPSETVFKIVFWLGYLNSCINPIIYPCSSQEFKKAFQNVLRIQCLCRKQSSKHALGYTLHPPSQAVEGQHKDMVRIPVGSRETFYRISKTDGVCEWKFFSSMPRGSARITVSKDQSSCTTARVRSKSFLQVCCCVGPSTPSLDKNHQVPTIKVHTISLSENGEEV
# Procedure Text: Binding affinity at the human alpha-1A adrenergic receptor
# Conditions Used: Table 3d; read-out: hα1A Ki
Recorded Metric: pKi
Please treat pKi as minus the base-10 logarithm of the molar concentration.

Q) Please give the measured pKi for this substance: 2-(3,4-DIFLUOROPHENYL)4,5-DIHYDROIMIDAZOLE-1-CARBOXYLIC ACID {3-[4-PHENYL-4-(4-BROMO-5-METHYLTHIOPNEN-2-YL)]-PROPYL}-AMIDE [Example 19]
A) 8.60
